Tested on: SF-539 CNS
experiment-summary: NCI-60 one-dose screen, 48 h (100 = growth as untreated, 0 = no growth, -100 = all killed)
test-context: 10 µM unless noted
About 83,000 compounds went through this panel and 20% of them were active in at least one assay; those are over-represented in the sample as a whole. The source made the active and inactive calls. The calls were made as follows: active = growth percent below 10; inactive = the rest.
Quick reference for growth among some molecules

>>> df
                                   molecule    measured_value
0  COC(=O)[C@@H](C)C[C@H](Cc1ccccc1)NC(=O)c1nc([C@@H](C[C@H](C(C)C)N(C)C(=O)[C@@H](NC(=O)[C@H]2CCCN2C)C(C)C)OC(C)=O)sc1C   -8.41% (active)
1  O=C1NC(=O)C(=Cc2cn(CCCCCCn3c4ccccc4c(=O)c4ccccc43)c3ccccc23)C(=O)N1    93% (inactive)
2  O=C1NC(=O)C(=Cc2cccn2CCCCCn2c3ccccc3c(=O)c3ccccc32)C(=O)N1   102% (inactive)
3                O=C(Nc1ccc(Cl)cc1)Nc1nccs1  10.8% (inactive)

Next molecule, growth to be filled in.
Task item: Report its growth with SF-539 CNS as the test system: COC(=O)[C@H](Cc1ccccc1)NNC(=O)c1csc([C@@H](C[C@H](C(C)C)N(C)C(=O)[C@@H](NC(=O)[C@H]2CCCCN2C)C2CC2)OC(C)=O)n1
Reply: -15.4% (active)

---

Tested on: HOP-92 NSCLC
experiment-summary: NCI-60 one-dose screen, 48 h (100 = growth as untreated, 0 = no growth, -100 = all killed)
test-context: 10 µM unless noted
Description: Growth inhibition of the HOP-92 human Non-Small Cell Lung tumor cell line is measured as a screen for anti-cancer activity. Cells are grown in 96 well plates and exposed to the test compound for 48 hours. Compounds are tested at a single concentration, which is 10^-5 M for most compounds. The reported endpoint is percent growth (GI% or GIPRCNT), where numbers from 0 - 100% represent growth inhibition, and numbers from -100% - 0 represent cell death. […]
The panel holds about 83,000 compounds, 20% with a hit somewhere; the sample as a whole holds those more often.
Quick reference for growth among some compounds
Only the number, expressed in %, is required.

Task item: Report its growth with HOP-92 NSCLC as the test system: O=C([O][Hg][CH2]C1COCC([CH2][Hg][O]C(=O)c2ccccc2)O1)c1ccccc1 (stereo not given)
Reply: 77

Task item: Report its growth with HOP-92 NSCLC as the test system: C=C1[C@@H](C)[C@H]2[C@H](Cc3ccccc3)NC(=O)[C@]23[C@@H](O)/C=C/[C@@](C)(O)C(=O)[C@@H](C)C/C=C/[C@H]3[C@@H]1O
Reply: -9.38

Task item: Report its growth with HOP-92 NSCLC as the test system: CSc1nc(Cl)cc(N2CC2)n1
Reply: 93

Task item: Report its growth with HOP-92 NSCLC as the test system: CC(=O)ONc1ccc([N+](=O)[O-])c(C(F)(F)F)c1
Reply: 99.6

Task item: Report its growth with HOP-92 NSCLC as the test system: O=C(c1cccc(O)c1O)c1cn(Cc2ccc(F)cc2)c2cccc(O)c12
Reply: -9.9

---

Tested on: CAKI-1 renal
experiment-summary: NCI-60 one-dose screen, 48 h (100 = growth as untreated, 0 = no growth, -100 = all killed)
test-context: 10 µM unless noted
Compounds without any hit were thinned out: in the full panel of roughly 83,000, 20% have a hit.
# if measured growth < 60%: Fulfilled  # else: Not fulfilled

Recorded results for 4 molecules are shown here.
molecule	experimental-system	class-assignment
C/C(=C\c1ccn(-c2ccccc2N)n1)[C@@H]1C[C@@H]2O[C@]2(C)CCC[C@H](C)[C@H](O)[C@@H](C)C(=O)C(C)(C)[C@@H](O)CC(=O)O1	CAKI-1 renal	Fulfilled
CC(=O)Nc1nc2c(s1)CC[C@@]1(C)C2=CC[C@H]2[C@@H]3CC[C@H](O)[C@@]3(C)CC[C@@H]21	CAKI-1 renal	Fulfilled
CC[C@H](C)[C@H](NC(=O)C12C3C4C1C1C2C3C41NC)C(=O)N(C)[C@H](C[C@@H](OC(C)=O)c1nc(C(=O)N[C@@H](Cc2ccccc2)C[C@H](C)C(=O)OC)cs1)C(C)C (stereo partly drawn)	CAKI-1 renal	Fulfilled
C1CCC2(CC1)OOCNCOO2	CAKI-1 renal	Not fulfilled

Task item: Please determine if O=C1C=C(N2C3C4CCC(C4)C32)C(=O)C=C1c1ccccc1 (stereo not drawn) is below 60% in terms of growth.
Reply: Fulfilled

Task item: Please determine if Cc1ccc(S(=O)(=O)C(Cl)(Cl)Cl)cc1 is below 60% in terms of growth.
Reply: Not fulfilled

Task item: Please determine if CC(=O)[O][Hg][O]C(C)=O is below 60% in terms of growth.
Reply: Not fulfilled

Task item: Please determine if CCOC(=O)[C@@H](C)C[C@H](Cc1ccccc1)NC(=O)c1csc([C@@H](C[C@H](C(C)C)N(C)C(=O)[C@@H](NC(=O)[C@H]2CCCCN2C)C(C)(C)CC)OC(C)=O)n1 is below 60% in terms of growth.
Reply: Fulfilled

---

Test system: NCI-H23 lung
experiment-summary: NCI-60 one-dose screen, 48 h
test-context: 10 µM unless noted
Compounds without any hit were thinned out: in the full panel of roughly 83,000, 20% have a hit. Activity calls are given as the source filed them. The calls were made as follows: active = growth percent below 10; inactive = the rest.
Pick one and only one: Y for active, N for inactive

molecule	class-assignment
CC1CN1CCCCN1CC1C (centres undefined)	N
ClC1=C(Cl)C(Cl)(C2(Cl)C(Cl)=C(Cl)C(Cl)=C2Cl)C(Cl)=C1Cl	Y
COc1cc2c(c(OC)c1OC)-c1ccc([O-])c(=O)cc1[C@@H](NC(C)=O)CC2.COc1cc2c(c(OC)c1OC)-c1ccc([O-])c(=O)cc1[C@@H](NC(C)=O)CC2.[Cu+2]	N

Task item: Each molecule tested received a call. Report the one for COc1cccc2c1c(C(=O)C(=O)Nc1ccn[nH]1)cn2Cc1ccc(F)cc1 .
Reply: N

Task item: Each molecule tested received a call. Report the one for CNC12C3C4C1C1C2C3C41C(=O)N[C@H](C(=O)N(C)[C@H](C[C@@H](OC(C)=O)c1nc(C(=O)N[C@@H](Cc2ccccc2)C[C@H](C)C(=O)OC)cs1)C(C)C)C1CC1 (some centres undefined) .
Reply: Y

Task item: Each molecule tested received a call. Report the one for O=C1NC(=O)C(=Cc2ccc(OCCCCC3CCCCC3)c(Cl)c2)C(=O)N1 .
Reply: N

Task item: Each molecule tested received a call. Report the one for CC(=O)OC[C@]1(C)C=C2C(=O)[C@](C)(O)C3(CC3)C(C)=C2[C@H]1O .
Reply: Y

Task item: Each molecule tested received a call. Report the one for NC1CC2CCCCC2CC1(O)c1ccccc1 (centres undefined) .
Reply: N

---

System: A498 renal
experiment-summary: NCI-60 one-dose screen, 48 h
test-context: 10 µM
This is part of a sample that, as a whole, favours compounds with a hit. Of some 83,000 tested, about 20% had one in any assay. The source made the active and inactive calls. How the source made its calls: active means growth percent below 10; inactive means the rest.
Pick one and only one: class 1 = active, class 0 = inactive

In [3]: df
Out[3]:
                                   compound  class_assignment
0  CN1CCCCC1C(C)(O)c1ccccc1 (stereo unspecified)           class 0
1                              O=NNc1ccccn1           class 0
2  O=P1(NCCCl)OCCCN1CCCl (stereo unspecified)           class 0
3  CC1CCCC(C[N+](C)(C)C)C1=O (stereo unspecified)           class 0
4                O=C(Nc1ccc(Cl)cc1)Nc1nccs1           class 1

Task item: Each compound tested received a call. Report the one for COc1ccc(N(CC(=O)NCCC[Te]c2ccccc2)C(=O)CNC(=O)OC(C)(C)C)cc1 .
Reply: class 1

Task item: Each compound tested received a call. Report the one for COC(=O)[C@@H](C)C[C@H](Cc1ccccc1)NC(=O)c1csc(CC[C@H](C(C)C)N(C)C(=O)[C@@H](NC(=O)[C@H]2CCCCN2C)C(C)C)n1 .
Reply: class 1

Task item: Each compound tested received a call. Report the one for Clc1ccc(N2COOC3(OOC2)C2CC4CC(C2)CC3C4)cc1 .
Reply: class 0

Task item: Each compound tested received a call. Report the one for CC(C)[C@]12O[C@H]1[C@@H]1O[C@]13[C@]1(O[C@H]1C[C@H]1c4c(C(=O)c5ccccc5)oc(OC(=O)c5ccccc5)c4CC[C@@]13C)[C@@H]2O .
Reply: class 1

Task item: Each compound tested received a call. Report the one for O=C1C(Cl)=C(N2CCOCC2)C(=O)c2ccccc21 .
Reply: class 0

Task item: Each compound tested received a call. Report the one for COc1cc(/C=C\c2cc(OC)c(OC)c(OC)c2)cc(N/C=C\C(=O)c2cc(OC)c(OC)c(OC)c2)c1OC .
Reply: class 1
